Test details: Modulation of gamma secretase in CHO-2B7 cells assessed as reduction in amyloid beta 42 level after 5 hrs by MSD ELISA
Assay type: cell-based
Setup conditions: Cricetulus griseus, CHO-2B7, 5 h
Consider the following molecules and their measured IC50 readings.
Provide the reading as a plain figure in nM.

Guide cases for IC50, answers given:
# Compound structure string, Observed property, Unit abbrev, Numeric readout
data = [
    ("CNC(=O)OC[C@H]1C[C@@H](C)[C@H]2[C@H](O1)[C@H](O)[C@@]1(C)[C@@H]3CC[C@H]4C(C)(C)[C@@H](O[C@H]5CN(C(=O)CC6CC6)CCO5)CC[C@@]45C[C@@]35CC[C@]21C", "IC50", "nM", 350),
    ("CC(C)O[C@@H]([C@H]1C[C@@H](C)[C@H]2[C@H](O1)[C@H](O)[C@@]1(C)[C@@H]3CC[C@H]4C(C)(C)[C@@H](O[C@H]5CN(C6COC6)CCO5)CC[C@@]45C[C@@]35CC[C@]21C)C(C)(C)O", "IC50", "nM", 440),
    ("CC(C)[C@@H](OC(=O)N1CCC1)[C@H]1C[C@@H](C)[C@H]2[C@H](O1)[C@H](O)[C@@]1(C)[C@@H]3CC[C@H]4C(C)(C)[C@@H](O[C@H]5CN(C(=O)CCC(=O)O)CCO5)CC[C@@]45C[C@@]35CC[C@]21C", "IC50", "nM", 280),
]

Next:
Qu. Value lookup for IC50; key = CC(=O)O[C@@H]([C@H]1C[C@@H](C)[C@H]2[C@H](O1)[C@H](O)[C@@]1(C)[C@@H]3CC[C@H]4C(C)(C)[C@@H](O)CC[C@@]45C[C@@]35CC[C@]21C)C(C)(C)O
Ans. 600

###

Test details: Modulation of gamma secretase in CHO-2B7 cells assessed as reduction in amyloid beta 42 level after 5 hrs by MSD ELISA
Assay type: cell-based
Setup conditions: Cricetulus griseus, CHO-2B7, 5 h
Observed property: IC50 (nM)
Provide the reading as a plain figure in nM.

# Compound structure string, Unit abbrev, Numeric readout
measured = [
    ("CCO[C@@H]([C@H]1C[C@@H](C)[C@H]2[C@H](O1)[C@H](O)[C@@]1(C)[C@@H]3CC[C@H]4C(C)(C)[C@@H](O[C@H]5CN(CCCC(=O)O)CCO5)CC[C@@]45C[C@@]35CC[C@]21C)C(C)(C)O", "nM", 630),
]

Qu. Value lookup for IC50; key = C[C@@H]1C[C@H]([C@H](O)C(C)(C)O)O[C@H]2[C@H]1[C@@]1(C)CC[C@@]34C[C@@]35CC[C@H](O[C@H]3CN(C(=O)c6nccn6C)CCO3)C(C)(C)[C@@H]5CC[C@H]4[C@]1(C)[C@H]2O
Ans. 130

Qu. Same lookup for CC(C)[C@@H](OC(=O)N1CCC1)[C@H]1C[C@@H](C)[C@H]2[C@H](O1)[C@H](O)[C@@]1(C)[C@@H]3CC[C@H]4C(C)(C)[C@@H](OC(=O)N5CCC(F)(F)CC5)CC[C@@]45C[C@@]35CC[C@]21C , please.
Ans. 9100

Qu. Same lookup for CNC(=O)O[C@H](C(C)C)[C@H]1C[C@@H](C)[C@H]2[C@H](O1)[C@H](O)[C@@]1(C)[C@@H]3CC[C@H]4C(C)(C)[C@@H](O)CC[C@@]45C[C@@]35CC[C@]21C , please.
Ans. 890

###

Test details: Modulation of gamma secretase in CHO-2B7 cells assessed as reduction in amyloid beta 42 level after 5 hrs by MSD ELISA
Type: cell-based
Setup conditions: Cricetulus griseus, CHO-2B7, 5 h
Observed property: IC50 (nM)
Provide the reading as a plain figure in nM.

Qu. Value lookup for IC50; key = CO[C@@H]([C@H]1C[C@@H](C)[C@H]2[C@H](O1)[C@H](O)[C@@]1(C)[C@@H]3CC[C@H]4C(C)(C)[C@@H](O[C@H]5CN(C6COC6)CCO5)CC[C@@]45C[C@@]35CC[C@]21C)C(C)(C)O
Ans. 690

###

Test details: Ratio of drug uptake in brain to plasma in FVB mouse at 10 mg/kg, ip at 6 hrs
Type: ADME, organism-based
Parameters: dose 10 mg/kg, route intraperitoneal
Setup conditions: brain and plasma, read-out: BPR
Observed property: Kp at 6 h
Give the figure only, with no unit attached.

Qu. Value lookup for Kp at 6 h; key = CC(C)[C@@H](OC(=O)N1CCC1)[C@H]1C[C@@H](C)[C@H]2[C@H](O1)[C@H](O)[C@@]1(C)[C@@H]3CC[C@H]4C(C)(C)[C@@H](OC(=O)N(C)C5CN(C)C5)CC[C@@]45C[C@@]35CC[C@]21C
Ans. 0.035

###

Consider the following compounds and their measured IC50 readings.
Test details: Modulation of gamma secretase in CHO-2B7 cells assessed as reduction in amyloid beta 42 level after 5 hrs by MSD ELISA
Type: cell-based
Setup conditions: Cricetulus griseus, CHO-2B7, 5 h
Provide the reading as a plain figure in µM.

# Compound structure string, Unit abbrev, IC50
measured = [
    ("CCO[C@@H]([C@H]1C[C@@H](C)[C@H]2[C@H](O1)[C@H](O)[C@@]1(C)[C@@H]3CC[C@H]4C(C)(C)[C@@H](O[C@H]5CN(C6(C)COC6)CCO5)CC[C@@]45C[C@@]35CC[C@]21C)C(C)(C)O", "µM", 0.4),
]

Next:
Qu. Value lookup for IC50; key = CCO[C@@H]([C@H]1C[C@@H](C)[C@H]2[C@H](O1)[C@H](O)[C@@]1(C)[C@@H]3CC[C@H]4C(C)(C)[C@@H](O[C@H]5CN(C6CCOCC6)CCO5)CC[C@@]45C[C@@]35CC[C@]21C)C(C)(C)O
Ans. 0.35

###

Test details: Clearance in rat at 3 mg/kg, iv
Assay type: ADME, organism-based
Parameters: dose 3 mg/kg, route intravenous
Setup conditions: in vivo
Observed property: clearance (mL/min/kg)
Provide the reading as a plain figure in mL/min/kg.

Qu. Value lookup for clearance; key = C[C@@H]1C[C@H]([C@H](O)C(C)(C)O)O[C@H]2[C@H]1[C@@]1(C)CC[C@@]34C[C@@]35CC[C@H](O[C@H]3CN([C@H]6CCNC6=O)CCO3)C(C)(C)[C@@H]5CC[C@H]4[C@]1(C)[C@H]2O
Ans. 9.67

###

Test details: in vivo
Setup conditions: CD1, mouse, po, 30 mg/kg
Description: Oral bioavailability in CD1 mouse at 30 mg/kg
Observed property: bioavailability (%)
Provide the reading as a plain figure in %.

Qu. Value lookup for bioavailability; key = CCO[C@@H]([C@H]1C[C@@H](C)[C@H]2[C@H](O1)[C@H](O)[C@@]1(C)[C@@H]3CC[C@H]4C(C)(C)[C@@H](O[C@H]5CN(CCOC)CCO5)CC[C@@]45C[C@@]35CC[C@]21C)C(C)(C)O
Ans. 19

###

Test details: Metabolic stability in human liver microsomes assessed as compound remaining at 1 uM at 60 mins by LC/MS/MS analysis in absence of NADPH
Assay type: ADME, Microsome
Setup conditions: liver microsomes, read-out: Stability
Observed property: remaining at 1 h, 1 µM (%)
Provide the reading as a plain figure in %.

# Compound structure string, Numeric readout
measured = [
    ("CCO[C@@H]([C@H]1C[C@@H](C)[C@H]2[C@H](O1)[C@H](O)[C@@]1(C)[C@@H]3CC[C@H]4C(C)(C)[C@@H](OC(=O)NC5CNC5)CC[C@@]45C[C@@]35CC[C@]21C)C(C)(C)O", 92),
    ("CC(=O)O[C@@H]([C@H]1C[C@@H](C)[C@H]2[C@H](O1)[C@H](O)[C@@]1(C)[C@@H]3CC[C@H]4C(C)(C)[C@@H](OC(=O)NC5CNC5)CC[C@@]45C[C@@]35CC[C@]21C)C(C)(C)O", 21),
    ("CO[C@@H]([C@H]1C[C@@H](C)[C@H]2[C@H](O1)[C@H](O)[C@@]1(C)[C@@H]3CC[C@H]4C(C)(C)[C@@H](O[C@H]5CN(C6COC6)CCO5)CC[C@@]45C[C@@]35CC[C@]21C)C(C)(C)O", 93),
    ("CNC(=O)O[C@H](C(C)C)[C@H]1C[C@@H](C)[C@H]2[C@H](O1)[C@H](O)[C@@]1(C)[C@@H]3CC[C@H]4C(C)(C)[C@@H](OC(N)=O)CC[C@@]45C[C@@]35CC[C@]21C", 117),
    ("CC(=O)O[C@H](C(C)C)[C@H]1C[C@@H](C)[C@H]2[C@H](O1)[C@H](O)[C@@]1(C)[C@@H]3CC[C@H]4C(C)(C)[C@@H](O)CC[C@@]45C[C@@]35CC[C@]21C", 0),
]

Qu. Value lookup for remaining at 1 h, 1 µM; key = CCO[C@@H]([C@H]1C[C@@H](C)[C@H]2[C@H](O1)[C@H](O)[C@@]1(C)[C@@H]3CC[C@H]4C(C)(C)[C@@H](O[C@H]5CN(C6COC6)CCO5)CC[C@@]45C[C@@]35CC[C@]21C)C(C)(C)O
Ans. 94

Qu. Same lookup for CC(C)[C@@H](OC(=O)N(C)C)[C@H]1C[C@@H](C)[C@H]2[C@H](O1)[C@H](O)[C@@]1(C)[C@@H]3CC[C@H]4C(C)(C)[C@@H](OC(=O)NC5CNC5)CC[C@@]45C[C@@]35CC[C@]21C , please.
Ans. 113
